This collection of values is drawn from ChEMBL document CHEMBL3988442.

- Tested on: Trypanosoma brucei
- method-description: Trypanosoma brucei 72 hour study
- Format: functional, organism-based
- Set-up: scale not given: in the data most compounds retested in dose-response had high values
- condition-context: 30.3 µM; […]
In all, about 66,000 compounds went through this assay and about 960 (1.5%) showed an effect of 50% or more. Only a selection was taken, and strong results are over-represented in it overall.
experimental-readout: Percent Effect (%)

| compound | test-system | experimental-readout | unit-spec | reading |
| --- | --- | --- | --- | --- |
| Clc1ccc(Cc2nc(CNCCn3cccn3)cs2)cc1 | Trypanosoma brucei | Percent Effect | % | 19.22 |
| CC(Cn1cccn1)NCc1csc(COc2ccc(F)cc2)n1 (centres undefined) | Trypanosoma brucei | Percent Effect | % | 4.13 |
| Cc1ccc(CN(CCCN2CCOCC2)Cc2cnn(C)c2)o1.O=C(O)CC(O)(CC(=O)O)C(=O)O | Trypanosoma brucei | Percent Effect | % | -8.498 |
| CCc1nc(NS(=O)(=O)c2ccc(F)cc2Cl)no1 | Trypanosoma brucei | Percent Effect | % | -4.749 |
| CCn1nccc1C(=O)Nc1nc(C)c(C(C)=O)s1 | Trypanosoma brucei | Percent Effect | % | -2.793 |
| CCN1CCOCC12CCN(C(=O)C1CCC1)CC2.O=C(O)C(F)(F)F | Trypanosoma brucei | Percent Effect | % | -58.96 |
| O=C(COC[C@@]12CCC[C@@H]1CN(C1CCCC1)C2)N1CCCC1.O=C(O)C(F)(F)F | Trypanosoma brucei | Percent Effect | % | -80.12 |
| COc1ccc2c(c1)nc1n2[C@@H](CNC(=O)c2cccnc2)COC1 | Trypanosoma brucei | Percent Effect | % | -10.65 |
| CCOC(=O)C1CCCN(Cc2c[nH]nc2-c2cc3ccccc3o2)C1 (centres undefined) | Trypanosoma brucei | Percent Effect | % | 15.89 |
| CNC(=O)[C@@H]1CN(C(=O)C2CCC2)C[C@H]1c1ccnc(N2CCCC2)n1.Cl | Trypanosoma brucei | Percent Effect | % | 8.722 |
| NC[C@H]1CC[C@H](C(NC(=O)C2CC2)c2ccccn2)CC1 (some centres undefined) | Trypanosoma brucei | Percent Effect | % | -27.22 |
| O=C(NCc1cccs1)[C@H]1CO[C@H]2CCN(C3CCCC3)C[C@H]2C1.O=C(O)C(F)(F)F | Trypanosoma brucei | Percent Effect | % | -53.03 |
| Fc1ccccc1C1NCCc2cc3c(cc21)OCCO3 (centres undefined) | Trypanosoma brucei | Percent Effect | % | 18.61 |
| CCc1nc(NS(=O)(=O)c2cc(C)c(F)cc2Cl)no1 | Trypanosoma brucei | Percent Effect | % | 54.01 |
| Cc1nc(CN2CCN(C)C(=O)C23CCN(C(C)C)CC3)cs1.O=C(O)C(F)(F)F | Trypanosoma brucei | Percent Effect | % | -9.175 |
| CN(C)C(=O)CN1CCCC(c2cncc(-c3cccc(Cl)c3)n2)C1 (centres undefined) | Trypanosoma brucei | Percent Effect | % | 53.32 |
| Cc1ccc2c(c1)nc1n2[C@@H](CNC(=O)c2cncnc2)COC1 | Trypanosoma brucei | Percent Effect | % | -3.868 |
| O=C(NCC1CCOCC1)[C@@H]1C[C@@H]2[C@@H](CCN2Cc2nccs2)O1.O=C(O)C(F)(F)F | Trypanosoma brucei | Percent Effect | % | -69.82 |
| Cc1cnn(CCNCc2csc(COc3ccccc3)n2)c1 | Trypanosoma brucei | Percent Effect | % | 54.15 |

###

Each entry below carries its recorded Percent Effect.
- Tested on: Trypanosoma brucei
- method-description: Trypanosoma brucei 72 hour study
- Assay type: functional, organism-based
- Design: scale not given: in the data most compounds retested in dose-response had high values
- condition-context: 30.3 µM; […]
About 960 (1.5%) of roughly 66,000 compounds showed an effect of 50% or more. For the sample, strong results were picked, then their nearest neighbours and some compounds at random.
experimental-readout: Percent Effect (%)

| compound | experimental-readout | unit-spec | reading |
| --- | --- | --- | --- |
| CN1CCC(c2n[nH]cc2-c2ccnc(N)c2)C1 (stereo not drawn) | Percent Effect | % | -5.978 |
| Cc1c[nH]nc1C1CCN(C(=O)Cn2cccn2)C1 (stereo not drawn) | Percent Effect | % | -30.39 |
| CC1=N[C@@]2(CC[C@@H]3CN(Cc4ccccc4C)C[C@@H]32)C(=O)N1CC1CC1.O=C(O)C(F)(F)F | Percent Effect | % | -63.56 |
| Cc1cccc(CN2C(=O)CCC23CCN(c2ncc(F)cn2)CC3)n1.O=C(O)C(F)(F)F | Percent Effect | % | 6.517 |
| COc1cc(CN(C)[C@@H]2COC[C@H]2c2ccc(F)cc2)cc(OC)c1.O=C(O)CC(O)(CC(=O)O)C(=O)O | Percent Effect | % | -25.55 |
| Cc1cc(Cc2ccccc2)cc(C2CCCNC2)n1 (stereo not drawn) | Percent Effect | % | 2.708 |
| CC(=O)N1[C@H](CN(C)C)C[C@@H]2CN(C(=O)c3ccno3)CC[C@@H]21.O=C(O)C(F)(F)F | Percent Effect | % | 5.246 |
| Cn1c(C2CC2)nc2c1CCN(CCOc1ccccc1C#N)C2 | Percent Effect | % | 73.03 |
| Cc1cc(Cc2ccccc2C)cc(C2CCCNC2)n1 (stereo not drawn) | Percent Effect | % | 49.51 |
| O=C(CC1CC2(CCN(CC3CC3)CC2)Oc2ccccc21)NC1CC1.O=C(O)C(F)(F)F (stereo not drawn) | Percent Effect | % | 11.6 |
| Cc1cc(CN2CCC(CNS(=O)(=O)c3ccc(Br)s3)CC2)c(C)o1 | Percent Effect | % | 55.92 |
| Nc1cc(-c2c[nH]nc2C2CCCCN2C(=O)C2CCCC2)ccn1 (stereo not drawn) | Percent Effect | % | 11.59 |
| CCN1N=C(C(=O)N2CCCC(c3nc(C)cs3)C2)CCC1=O (stereo not drawn) | Percent Effect | % | -15.61 |

###

Each entry below carries its recorded Percent Effect.
- Tested on: Trypanosoma brucei
- method-description: Trypanosoma brucei 72 hour study
- Format: functional, organism-based
- Design: scale not given: in the data most compounds retested in dose-response had high values
- condition-context: 30 µM; 30.03 µM
Hit rate of the full screen: of about 66,000 compounds, about 960 (1.5%) showed an effect of 50% or more. The entries come from a sample that favours strong results as a whole.

| compound | Percent Effect / % |
| --- | --- |
| Cn1ccnc1-c1ccc(NCCC2COc3ccccc3O2)nn1 (stereo not drawn) | -17.77 |
| CN(CCn1cnnc1)S(=O)(=O)c1ccc(C(F)(F)F)nc1 | -27.18 |
| Fc1cccc(Oc2ccc(CNCC3CNc4ccnn4C3)cn2)c1 (stereo not drawn) | 11.44 |

###

- Tested on: Trypanosoma brucei
- method-description: Trypanosoma brucei 72 hour study
- Assay type: functional, organism-based
- Parameters: scale not given: in the data most compounds retested in dose-response had high values
- condition-context: 30.3 µM; […]
Out of some 66,000 compounds screened, about 960 (1.5%) showed an effect of 50% or more. The sample as a whole holds a higher share of strong results than the screen did.

| compound | Percent Effect |
| --- | --- |
| CC(C)C[C@H](N)COc1cccc(F)c1Oc1cccc(Cl)c1 | 99.87% |
| O=C(O)C1CN(c2cncc(Cc3ccccc3F)n2)C1 | -23.43% |
| COc1cc(CCC(=O)N2CCC(c3cc4ncc(C)nc4[nH]3)C2)on1 (centres undefined) | 31.83% |
| CNC(=O)C(CC(C)C)NC(=O)c1cccc(-c2n[nH]c(C)n2)c1 (centres undefined) | -198.3% |

###

- Test system: Trypanosoma brucei
- method-description: Trypanosoma brucei 72 hour study
- Format: functional, organism-based
- Set-up: scale not given: in the data most compounds retested in dose-response had high values
- condition-context: 30.3 µM; […]
Out of some 66,000 compounds screened, about 960 (1.5%) showed an effect of 50% or more. What follows is part of a selection rich in strong results, with near analogues and random picks from the rest.

| molecule | Percent Effect |
| --- | --- |
| CCC(=O)N1CCC2(CC1)CC(CC(=O)N(C)C)c1ccc(F)cc12 (stereo not given) | -4.762% |
| O=C(Nc1cccc2c1CCCC2)c1cccnc1N1CCCNCC1 | -17.09% |
| O=C(O)C(F)(F)F.O=C([C@H]1CC[C@@H]2[C@@H](CCN2C2CCCCC2)O1)N1CCOCC1 | 2.517% |
| COc1c(CNCCNC(=O)c2cccc(C)c2)c(C)nn1C.Cl | 0.1013% |
| Cc1nnc(N2CCCC3(CN(c4ccccn4)CCO3)C2)o1.O=C(O)C(F)(F)F (stereo not given) | 1.863% |
| CN1CCN(CCO)C(=O)C12CCN(Cc1ccsc1)CC2.O=C(O)C(F)(F)F.O=C(O)C(F)(F)F | -7.984% |
| O=C(O)C(F)(F)F.O=C([C@@H]1C[C@@H]2CCN(C3CCOCC3)C[C@@H]2O1)N1CCCC1 | -37.65% |
| CN(C)C(=O)CN1CCC2(COCc3cnc(-c4cccnc4)nc32)C1.O=C(O)C(F)(F)F.O=C(O)C(F)(F)F (stereo not given) | -72.36% |
| CN1CCC(N2Cc3nc(N)ncc3C2=O)CC1 | -14.03% |
| CC[C@@H]1N(Cc2ccc(F)cc2)CCC[C@]12CCC(=O)N2C.O=C(O)C(F)(F)F | -14.8% |
| Cc1nc(-c2ccc(CO)cc2)cc(C2CCNCC2)n1.Cl | -17.1% |
| c1cc(-c2n[nH]cc2-c2ccnc(N3CCCCCC3)n2)ccn1 | 36.75% |
| O=C(c1cc(-c2ccn(CC3CC3)n2)n2ccccc12)N1CCOCC1 | 100.3% |
| c1ccc(-c2cc(NCCCC3CCOC3)n3nccc3n2)cc1 (stereo not given) | 35.81% |
| COc1ccc(-c2cc(C3CCNCC3)nc(C)n2)cc1.Cl | 0.4357% |
| CCN1C(=O)CC[C@]12CC[C@@H](NC(=O)c1cnccn1)CC2 | -18.7% |
| Cc1noc(NC(=O)CCNC(=O)c2ccc(Br)cc2)n1 | -27.06% |
| Cc1cnn(C2CCCN(C(=O)c3ccc(-n4cccn4)nc3)C2)c1 (stereo not given) | -2.436% |
| Cc1cc2nc(-c3ccccc3)cc(NCC3CCCOC3)n2n1 (stereo not given) | 87.98% |
| Cc1nn(C)c(C)c1S(=O)(=O)N1CC[C@@H]2O[C@@H](C)C[C@H]2C1.O=C(O)C(F)(F)F | 5.348% |
| CCCC(=O)N(C)Cc1nc(N2CCCC2)ncc1-c1ccncc1.Cl | 24.09% |
| Cc1cc2nc(-c3ccccc3)cc(NCC3CCS(=O)(=O)C3)n2n1 (stereo not given) | 6.285% |
| Cc1ncc2c(n1)CN(CCCc1ccccc1)CC2 | 13.17% |
| Cc1ccc(N2CC[C@@H]3[C@@H]2CCN3C(=O)Cc2ccccc2)nn1.O=C(O)C(F)(F)F | -46.46% |
| Cc1ccc(C(=O)Nc2nc(C)no2)cc1 | 24.35% |
